System: human platelet aggregation
Assay: Platelet aggregation in vitro in platelet rich plasma
Type: cell-based
Settings: Table I summary; serotonin at 5 µM as aggregant, human PRP; read-out: Platelet aggregation (IC50) vs. 5-HT (serotonin)
I'd be grateful if you could share measured pIC50 for these entries.
The scale used: pIC50 is minus the common logarithm of the concentration in molar units.

Query block: Would you kindly share the measured pIC50 for CC1CC(=O)NN=C1c1ccc2c(c1)OCC(=O)N2 (single isomer, unassigned; isomer 6) [(+) isomer] ?
Result block: 5.10

Query block: Would you kindly share the measured pIC50 for CC1CC(=O)NN=C1c1ccc2c(c1)OCC(=O)N2 (single isomer, unassigned; isomer 6) [(-) isomer] ?
Result block: 6.30

----------
Target: cyclic nucleotide phosphodiesterase (Canis lupus familiaris, UniProt A0A8I3NYE0)
Sequence (A0A8I3NYE0 1-1135): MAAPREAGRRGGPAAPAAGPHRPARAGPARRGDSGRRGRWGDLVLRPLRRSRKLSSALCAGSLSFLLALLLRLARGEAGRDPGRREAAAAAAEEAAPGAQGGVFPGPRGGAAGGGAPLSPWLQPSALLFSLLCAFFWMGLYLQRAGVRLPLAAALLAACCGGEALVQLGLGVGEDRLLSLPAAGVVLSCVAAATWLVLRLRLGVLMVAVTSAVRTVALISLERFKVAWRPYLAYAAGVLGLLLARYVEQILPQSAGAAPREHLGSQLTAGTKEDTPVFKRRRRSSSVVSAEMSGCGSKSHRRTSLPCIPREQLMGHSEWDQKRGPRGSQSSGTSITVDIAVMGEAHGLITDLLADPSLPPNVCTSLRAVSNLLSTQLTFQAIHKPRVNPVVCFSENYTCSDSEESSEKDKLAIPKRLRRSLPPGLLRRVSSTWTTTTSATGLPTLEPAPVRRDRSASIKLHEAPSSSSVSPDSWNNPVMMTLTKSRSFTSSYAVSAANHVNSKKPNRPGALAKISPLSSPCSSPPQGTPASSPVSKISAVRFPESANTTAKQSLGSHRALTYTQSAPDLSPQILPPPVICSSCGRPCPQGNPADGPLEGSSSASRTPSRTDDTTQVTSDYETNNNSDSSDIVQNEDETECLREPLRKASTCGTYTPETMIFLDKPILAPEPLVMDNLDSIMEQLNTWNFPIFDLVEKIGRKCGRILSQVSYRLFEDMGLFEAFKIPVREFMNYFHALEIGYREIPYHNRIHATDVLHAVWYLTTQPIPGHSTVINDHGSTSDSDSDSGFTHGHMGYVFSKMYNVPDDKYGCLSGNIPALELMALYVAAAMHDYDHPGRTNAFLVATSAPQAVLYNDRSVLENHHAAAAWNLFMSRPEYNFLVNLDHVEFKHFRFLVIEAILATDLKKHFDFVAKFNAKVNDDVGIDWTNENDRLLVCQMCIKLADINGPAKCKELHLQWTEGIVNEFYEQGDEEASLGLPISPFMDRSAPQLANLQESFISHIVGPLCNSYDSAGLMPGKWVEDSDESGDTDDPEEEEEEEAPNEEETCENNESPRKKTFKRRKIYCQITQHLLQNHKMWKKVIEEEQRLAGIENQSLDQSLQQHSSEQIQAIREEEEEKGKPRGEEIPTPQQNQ
quantity.measured: IC50

Query block: Would you kindly share the measured IC50 for CN1C(=O)CSc2ccc(C3=NNC(=O)CC3)cc21 ?
Result block: < 100 nM

From: patent EP0509845A1
